Taken from patent US9233983B2.

Target: UniProt Q06187
Assay: Recombinant Human Bruton's Tyrosine Kinase (Btk) Inhibition Assay (HTRF KinEASE-TK)
Type: biochemical
Conditions: 20 ng/ml rhBtk, 77 μM ATP (KM), 1 μM TK-Biotin substrate, 90 min; read-out: hBTK IC50
REPORTED ENDPOINT: IC50 (nM)
Lab book: enter the figure in nM, no units written.

Could you please provide reported IC50 for CN(C)C(=O)N1CC=C(c2cc3c(-c4cccc(N5CCOc6cc(C7CC7)cc(F)c6C5=O)c4CO)ccnc3[nH]2)CC1 ? Thanks! 1

Could you please provide reported IC50 for CCN1CCN(Cc2ccc(-c3cc4c(-c5cccc(N6CCOc7cc(C8CC8)ccc7C6=O)c5CO)ccnc4[nH]3)cn2)CC1 ? Thanks! 8

Could you please provide reported IC50 for CN1CCN(Cc2ccc(-c3cc4c(-c5cccc(-n6ncc7cc(C8CC8)ccc7c6=O)c5CO)ncnc4[nH]3)cc2)CC1 ? Thanks! 2

Could you please provide reported IC50 for CN1CCN(Cc2ccc(-c3cc4c(-c5cccc(N6CCOc7cc(C8CC8)ccc7C6=O)c5CO)ncnc4[nH]3)cc2)CC1 ? Thanks! 6

Could you please provide reported IC50 for CN1CCC(n2cc(-c3cc4c(-c5cccc(N6CCOc7cc(C8CC8)ccc7C6=O)c5CO)ncnc4[nH]3)cn2)CC1 ? Thanks! 6

Could you please provide reported IC50 for CN1CCC(n2cc(-c3cc4c(-c5cccc(N6CCOc7cc(C8CC8)ccc7C6=O)c5CO)ccnc4[nH]3)cn2)CC1 ? Thanks! 5

* * *

Kindly supply the reported IC50 values for the records listed here.
Target: human Bruton's Tyrosine Kinase (Btk) (Homo sapiens (Human))
Assay: Recombinant Human Bruton's Tyrosine Kinase (Btk) Inhibition Assay (HTRF KinEASE-TK)
Assay type: biochemical
Settings: 20 ng/ml rhBtk, 77 μM ATP (KM), 1 μM TK-Biotin substrate, 90 min; read-out: hBTK IC50
Lab book: enter the figure in µM, no units written.

Could you please provide reported IC50 for Cc1c(-c2ncnc3[nH]c(-c4ccc(CN5CCOCC5)cc4)cc23)cccc1N1CCOc2cc(C3CC3)ccc2C1=O [Example A-5] ? Thanks! 0.092

Could you please provide reported IC50 for Cc1c(-c2ncnc3[nH]c(-c4ccc(C(=O)N5CCCC5C(=O)O)cc4)cc23)cccc1N1CCOc2cc(C3CC3)ccc2C1=O (stereo not drawn) [Example K-12] ? Thanks! 0.114

Could you please provide reported IC50 for CN1CCN(c2ccc(-c3cc4c(-c5cccc(N6CCOc7cc(C8CC8)ccc7C6=O)c5CO)ccnc4[nH]3)nc2)CC1 [Example S-3] ? Thanks! 0.003

Could you please provide reported IC50 for CS(=O)(=O)N1CCN(Cc2ccc(-c3cc4c(-c5cccc(N6CCOc7cc(C8CC8)ccc7C6=O)c5CO)ccnc4[nH]3)nc2)CC1 [Example I-6] ? Thanks! 0.003

Could you please provide reported IC50 for CC(O)C(=O)N1CC=C(c2cc3c(-c4cccc(N5CCOc6cc(C7CC7)cc(F)c6C5=O)c4CO)ccnc3[nH]2)CC1 (stereo not drawn) [Example P-29] ? Thanks! 0.0013

Could you please provide reported IC50 for Cc1c(-c2ncnc3[nH]c(-c4ccc(C(=O)N5CCN(C)CC5)cc4)cc23)cccc1N1CCc2cc(C3CC3)ccc2C1=O [Example K-18] ? Thanks! 0.208

* * *

Tested on: mouse splenocytes
Assay: Inhibition of B Cell Activation as Measured by CD69 Expression in Mouse Splenocytes
Assay type: cell-based
Conditions: Splenocyte; C57/BL6 splenocytes, 3 ug/mL goat anti-mouse IgM, 18-20 hrs, CD69+ve cells within CD19; read-out: Mouse spleenocyte IC50
Description: Inhibition of B Cell Activation as Measured by CD69 Expression in Mouse Splenocytes: […] Test compounds were diluted half log starting from 2 mM in 100% DMSO (200×). […] Then the cells were washed 3 times with PBS with 1% FBS and analyzed by Guava Easycyte Mini flow cytometer system (Millipore). Flow cytometry data were analyzed using Weasel software (WEHI, Melbourne). […] Then expression of CD69 was analyzed as percentage of CD69+ve cells within CD19. […]
Flag rule - IC50 less than 0.02 µM flags T; the remaining entries get F.

Strictly below 0.02 µM: is that where IC50 of O=C1c2c(F)cc(C3CC3)cc2OCCN1c1cccc(-c2ccnc3[nH]c(-c4cnn(C5CCN(C6COC6)CC5)c4)cc23)c1CO [Example D-14] sits? T

Strictly below 0.02 µM: is that where IC50 of CC1(O)CCN(C(=O)c2ccc(-c3cc4c(-c5cccc(N6CCOc7cc(C8CC8)cc(F)c7C6=O)c5CO)ccnc4[nH]3)nc2)CC1 [Example L-3] sits? F

Strictly below 0.02 µM: is that where IC50 of CCN1CCN(Cc2ccc(-c3cc4c(-c5cccc(N6CCOc7cc(C8CC8)ccc7C6=O)c5CO)ncnc4[nH]3)cc2)CC1 [Example B-7] sits? F

Strictly below 0.02 µM: is that where IC50 of CC(C)N1CC(Oc2ccc(-c3cc4c(-c5cccc(N6CCOc7cc(C8CC8)ccc7C6=O)c5CO)ccnc4[nH]3)cn2)C1 [Example D-12] sits? F

Strictly below 0.02 µM: is that where IC50 of O=C1c2c(F)cc(C3CC3)cc2OCCN1c1cccc(-c2ccnc3[nH]c(C4=CCN(C5CCOCC5)CC4)cc23)c1CO [Example P-26] sits? F

Strictly below 0.02 µM: is that where IC50 of CN(C)C(=O)N1CC=C(c2cc3c(-c4cccc(N5CCOc6cc(C7CC7)ccc6C5=O)c4CO)ccnc3[nH]2)CC1 [Example P-5] sits? T

* * *

Molecular target: human Bruton's Tyrosine Kinase (Btk) (Homo sapiens (Human))
Test: Recombinant Human Bruton's Tyrosine Kinase (Btk) Inhibition Assay (HTRF KinEASE-TK)
Assay type: biochemical
Conditions: 20 ng/ml rhBtk, 77 μM ATP (KM), 1 μM TK-Biotin substrate, 90 min; read-out: hBTK IC50
REPORTED ENDPOINT: IC50 (nM)
Lab book: enter the figure in nM, no units written.

Could you please provide reported IC50 for CC(=O)N1CC=C(c2cc3c(-c4cccc(N5CCOc6cc(C7CC7)cc(F)c6C5=O)c4CO)ccnc3[nH]2)CC1 ? Thanks! 3.6

Could you please provide reported IC50 for O=C1c2c(F)cc(C3CC3)cc2OCCN1c1cccc(-c2ccnc3[nH]c(C4=CCN(C5CCOC5)CC4)cc23)c1CO (stereo not drawn) ? Thanks! 4

Could you please provide reported IC50 for CN1CCN(c2ccc(-c3cc4c(-c5cccc(N6CCOc7cc(C8CC8)ccc7C6=O)c5CO)ccnc4[nH]3)cn2)CC1 ? Thanks! 14

Could you please provide reported IC50 for CN1CCC(c2ccc(-c3cc4c(-c5cccc(-n6ccc7cc(C8CC8)ccc7c6=O)c5CO)ncnc4[nH]3)cc2)CC1 ? Thanks! 3

Could you please provide reported IC50 for CC1(O)CCN(C(=O)c2ccc(-c3cc4c(-c5cccc(N6CCOc7cc(C8CC8)cc(F)c7C6=O)c5CO)ccnc4[nH]3)nc2)CC1 ? Thanks! 8

Could you please provide reported IC50 for CCN1CCN(Cc2ccc(-c3cc4c(-c5cccc(N6CCc7cc(C8CC8)ccc7C6=O)c5C)ncnc4[nH]3)cc2)CC1 ? Thanks! 41

* * *

Target: human Bruton's Tyrosine Kinase (Btk) (Homo sapiens (Human), UniProt Q06187)
Sequence (Q06187 whole entry): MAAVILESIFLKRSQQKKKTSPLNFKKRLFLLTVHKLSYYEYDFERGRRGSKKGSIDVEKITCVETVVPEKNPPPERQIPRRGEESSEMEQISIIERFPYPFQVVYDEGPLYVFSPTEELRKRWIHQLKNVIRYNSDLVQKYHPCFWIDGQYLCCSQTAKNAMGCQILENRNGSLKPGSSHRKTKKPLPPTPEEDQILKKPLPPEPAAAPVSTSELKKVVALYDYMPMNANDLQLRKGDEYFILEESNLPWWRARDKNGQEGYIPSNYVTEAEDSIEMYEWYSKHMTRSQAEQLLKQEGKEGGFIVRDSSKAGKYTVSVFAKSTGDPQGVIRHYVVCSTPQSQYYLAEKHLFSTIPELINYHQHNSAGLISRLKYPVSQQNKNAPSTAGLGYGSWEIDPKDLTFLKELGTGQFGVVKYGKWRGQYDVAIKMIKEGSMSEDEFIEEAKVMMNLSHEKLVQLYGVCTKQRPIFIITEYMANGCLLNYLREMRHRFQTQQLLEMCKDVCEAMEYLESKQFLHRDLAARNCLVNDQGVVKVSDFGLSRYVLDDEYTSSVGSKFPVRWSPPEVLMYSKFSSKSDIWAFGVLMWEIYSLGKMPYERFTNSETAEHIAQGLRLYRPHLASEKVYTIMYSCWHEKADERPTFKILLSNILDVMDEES
Experiment: Recombinant Human Bruton's Tyrosine Kinase (Btk) Inhibition Assay (HTRF KinEASE-TK)
Format: biochemical
Details: 20 ng/ml rhBtk, 77 μM ATP (KM), 1 μM TK-Biotin substrate, 90 min; read-out: hBTK IC50
Kindly supply the reported IC50 values for the records listed here.

Could you please provide reported IC50 for Cc1c(-c2ncnc3[nH]c(-c4ccc(C(=O)N5CC(O)C5)cc4)cc23)cccc1N1CCc2cc(C3CC3)ccc2C1=O [Example K-17] ? Thanks! 41 nM

Could you please provide reported IC50 for O=C1c2ccc(C3CC3)cc2OCCN1c1cccc(-c2ccnc3[nH]c(-c4cnn(C5CCOCC5)c4)cc23)c1CO [Example F-2] ? Thanks! 43 nM

Could you please provide reported IC50 for CC1(O)CCN(C(=O)c2ccc(-c3cc4c(-c5cccc(N6CCOc7cc(C8CC8)ccc7C6=O)c5CO)ccnc4[nH]3)cc2)CC1 [Example L-2] ? Thanks! 9 nM

* * *

Target: human Bruton's Tyrosine Kinase (Btk) (Homo sapiens (Human))
Assay: Recombinant Human Bruton's Tyrosine Kinase (Btk) Inhibition Assay (HTRF KinEASE-TK)
Assay type: biochemical
Details: 20 ng/ml rhBtk, 77 μM ATP (KM), 1 μM TK-Biotin substrate, 90 min; read-out: hBTK IC50
REPORTED ENDPOINT: pIC50
Please note pIC50 is a logarithmic value: minus log10 of concentration in mol/L. Answer with that number alone.

Could you please provide reported pIC50 for N#CC1CCN(Cc2ccc(-c3cc4c(-c5cccc(N6CCOc7cc(C8CC8)ccc7C6=O)c5CO)ncnc4[nH]3)cc2)CC1 ? Thanks! 8.15

Could you please provide reported pIC50 for Cc1nn(C2CN(C)C2)cc1-c1cc2c(-c3cccc(N4CCOc5cc(C6CC6)ccc5C4=O)c3CO)ccnc2[nH]1 ? Thanks! 8.05

Could you please provide reported pIC50 for CN1CCN(Cc2ccc(-c3cc4c(-c5cccc(-n6ccc7cc(C8CC8)ccc7c6=O)c5CO)ncnc4[nH]3)cc2)CC1 ? Thanks! 8.15

Could you please provide reported pIC50 for CCN1CCN(Cc2ccc(-c3cc4c(-c5cccc(N6CCOc7cc(C8CC8)ccc7C6=O)c5CO)ncnc4[nH]3)cc2)CC1 ? Thanks! 8.22

Could you please provide reported pIC50 for Cc1c(-c2ncnc3[nH]c(-c4ccc(C(=O)N5CCNCC5)cc4)cc23)cccc1N1CCOc2cc(C3CC3)ccc2C1=O ? Thanks! 8.01

Could you please provide reported pIC50 for Cc1c(-c2ncnc3[nH]c(-c4ccc(C(=O)N5CCCC(O)C5)cc4)cc23)cccc1N1CCOc2cc(C3CC3)ccc2C1=O (stereo not drawn) ? Thanks! 7.38
